target: wild type LRRK2 overexpressed in recombinant HEK-293T cells (Homo sapiens, UniProt Q5S007); assay: pS935 LRRK2 Cell Assay (HTRF, phospho-LRRK2 Ser935); conditions: LRRK2 Inhibition, Table 8, 2 hours compound incubation
Sequence (Q5S007 whole entry): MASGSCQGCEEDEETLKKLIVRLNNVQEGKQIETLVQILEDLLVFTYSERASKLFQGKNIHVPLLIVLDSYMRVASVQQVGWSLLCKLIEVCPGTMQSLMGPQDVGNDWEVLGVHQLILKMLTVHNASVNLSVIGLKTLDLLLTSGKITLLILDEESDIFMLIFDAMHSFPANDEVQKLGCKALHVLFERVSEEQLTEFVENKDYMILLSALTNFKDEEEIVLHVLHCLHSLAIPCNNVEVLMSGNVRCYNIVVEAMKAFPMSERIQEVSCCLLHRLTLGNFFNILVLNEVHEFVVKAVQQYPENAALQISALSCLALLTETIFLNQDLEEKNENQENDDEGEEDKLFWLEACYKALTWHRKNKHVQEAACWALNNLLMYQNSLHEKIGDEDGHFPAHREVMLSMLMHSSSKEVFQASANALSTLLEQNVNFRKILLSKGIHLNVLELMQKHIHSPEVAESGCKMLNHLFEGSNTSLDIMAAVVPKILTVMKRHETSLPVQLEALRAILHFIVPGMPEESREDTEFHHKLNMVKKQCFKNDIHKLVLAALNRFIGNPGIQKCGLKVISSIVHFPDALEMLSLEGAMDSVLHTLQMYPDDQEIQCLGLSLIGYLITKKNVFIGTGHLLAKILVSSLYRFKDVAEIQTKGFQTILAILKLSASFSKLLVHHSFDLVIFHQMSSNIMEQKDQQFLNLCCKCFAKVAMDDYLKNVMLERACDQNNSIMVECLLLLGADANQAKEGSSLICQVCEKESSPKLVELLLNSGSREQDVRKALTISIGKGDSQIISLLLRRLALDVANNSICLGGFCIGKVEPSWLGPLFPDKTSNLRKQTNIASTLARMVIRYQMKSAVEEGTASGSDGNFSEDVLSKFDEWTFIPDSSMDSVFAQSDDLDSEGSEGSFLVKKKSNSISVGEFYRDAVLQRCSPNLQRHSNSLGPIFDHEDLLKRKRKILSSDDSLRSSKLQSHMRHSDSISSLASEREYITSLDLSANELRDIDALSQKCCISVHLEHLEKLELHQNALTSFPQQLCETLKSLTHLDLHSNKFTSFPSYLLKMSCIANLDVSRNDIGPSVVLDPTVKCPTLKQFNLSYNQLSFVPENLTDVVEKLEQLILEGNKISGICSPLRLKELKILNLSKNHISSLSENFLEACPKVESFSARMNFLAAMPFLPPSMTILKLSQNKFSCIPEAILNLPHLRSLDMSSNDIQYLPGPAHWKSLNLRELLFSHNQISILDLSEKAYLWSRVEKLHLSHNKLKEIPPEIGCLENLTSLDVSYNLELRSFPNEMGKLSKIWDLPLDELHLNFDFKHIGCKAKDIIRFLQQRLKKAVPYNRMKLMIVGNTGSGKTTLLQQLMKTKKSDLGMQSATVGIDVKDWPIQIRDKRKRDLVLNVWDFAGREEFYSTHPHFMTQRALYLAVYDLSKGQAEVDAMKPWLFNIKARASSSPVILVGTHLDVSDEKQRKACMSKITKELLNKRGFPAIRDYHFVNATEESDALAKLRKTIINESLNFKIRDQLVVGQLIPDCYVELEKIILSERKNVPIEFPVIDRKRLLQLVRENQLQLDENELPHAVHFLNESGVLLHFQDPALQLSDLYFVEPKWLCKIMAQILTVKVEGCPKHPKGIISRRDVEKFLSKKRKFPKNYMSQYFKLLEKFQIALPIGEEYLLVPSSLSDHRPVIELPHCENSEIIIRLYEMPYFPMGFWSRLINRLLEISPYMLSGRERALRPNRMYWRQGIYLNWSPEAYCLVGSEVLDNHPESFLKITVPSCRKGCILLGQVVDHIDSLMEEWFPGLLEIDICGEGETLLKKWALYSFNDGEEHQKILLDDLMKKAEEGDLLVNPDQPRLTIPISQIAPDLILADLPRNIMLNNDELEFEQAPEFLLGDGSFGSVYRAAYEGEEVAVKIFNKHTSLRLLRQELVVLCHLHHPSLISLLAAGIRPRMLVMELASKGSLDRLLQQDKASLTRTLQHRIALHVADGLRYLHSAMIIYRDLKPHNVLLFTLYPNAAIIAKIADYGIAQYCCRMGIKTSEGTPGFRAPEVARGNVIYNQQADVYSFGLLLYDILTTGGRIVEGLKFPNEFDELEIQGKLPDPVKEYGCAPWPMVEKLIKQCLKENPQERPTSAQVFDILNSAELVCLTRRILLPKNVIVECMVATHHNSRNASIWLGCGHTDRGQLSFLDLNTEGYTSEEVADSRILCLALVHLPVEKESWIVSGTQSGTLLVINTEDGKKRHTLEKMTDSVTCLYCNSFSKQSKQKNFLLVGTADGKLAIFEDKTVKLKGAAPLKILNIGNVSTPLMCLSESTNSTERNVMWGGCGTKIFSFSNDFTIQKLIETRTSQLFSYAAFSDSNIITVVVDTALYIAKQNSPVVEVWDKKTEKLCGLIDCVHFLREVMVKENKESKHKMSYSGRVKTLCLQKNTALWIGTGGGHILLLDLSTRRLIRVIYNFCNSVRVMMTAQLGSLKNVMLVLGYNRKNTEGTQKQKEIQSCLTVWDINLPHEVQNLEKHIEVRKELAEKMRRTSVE
pIC50: −log10 of the molar value.
Classify by measured pIC50: Fulfilled if it is equal to or exceeds 7, Not fulfilled if it is smaller.

• Cc1oncc1NC(=O)Cc1nc2cnc3ccc(C#N)cc3c2n1[C@@H]1CCO[C@H](C)C1 = Fulfilled
• C[C@@H]1C[C@H](n2c(CC(=O)Nc3ccn(C)c(=O)c3)nc3cnc4ccc(C#N)cc4c32)CCO1 = Not fulfilled
• Cc1ncnc(C)c1NC(=O)Cc1nc2cnc3ccc(Cl)cc3c2n1[C@@H]1CCO[C@H](C)C1 = Fulfilled
• C[C@@H]1C[C@H](n2c(CC(=O)N[C@@H](C)c3ccccn3)nc3cnc4ccc(C#N)cc4c32)CCO1 = Fulfilled
• C[C@@H]1C[C@H](n2c(CC(=O)Nc3cncc(C#N)c3)nc3cnc4ccc(C#N)cc4c32)CCO1 = Fulfilled
• C[C@@H]1C[C@H](n2c(CC(=O)NC3(C)CCC3)nc3cnc4ccc(C#N)cc4c32)CCO1 = Fulfilled
• C[C@@H]1C[C@H](n2c(C3CN(S(=O)(=O)C4CC4)C3)nc3cnc4ccc(C#N)cc4c32)CCO1 = Not fulfilled
• C[C@@H]1C[C@H](n2c(CC(=O)Nc3cccnc3Cl)nc3cnc4ccc(C#N)cc4c32)CCO1 = Fulfilled
• C[C@@H]1C[C@H](n2c(CC(=O)NC[C@H]3CCOC3)nc3cnc4ccc(C#N)cc4c32)CCO1 = Fulfilled
• C[C@@H]1C[C@H](n2c(CC(=O)Nc3ccn(C4CC4)n3)nc3cnc4ccc(C#N)cc4c32)CCO1 = Fulfilled
• C[C@@H]1C[C@H](n2c(CC(=O)Nc3cc(C(C)(C)F)no3)nc3cnc4ccc(C#N)cc4c32)CCO1 = Fulfilled
• C[C@@H]1C[C@H](n2c(CC(=O)N(C)C)nc3cnc4ccc(C#N)cc4c32)CCO1 = Not fulfilled
• C[C@@H]1C[C@H](n2c(CC(=O)NCCC(F)(F)F)nc3cnc4ccc(C#N)cc4c32)CCO1 = Fulfilled
• C[C@@H]1C[C@H](n2c(C3CC(=O)N(c4ccnn4C)C3)nc3cnc4ccc(C#N)cc4c32)CCO1 (stereo partly drawn) = Not fulfilled

----------
target: wild type LRRK2 overexpressed in recombinant HEK-293T cells (Homo sapiens, UniProt Q5S007); assay: pS935 LRRK2 Cell Assay (HTRF, phospho-LRRK2 Ser935); details: LRRK2 Inhibition, Table 8, 2 hours compound incubation
Ranges used to classify IC50: band 1: < 10 nM; band 2: ≥ 10 nM and < 70 nM; band 3: ≥ 70 nM

• C[C@@H]1C[C@H](n2c(CC(=O)NCC3CC3)nc3cnc4ccc(C5CC5)cc4c32)CCO1 [Compound 159] = band 3
• C[C@@H]1C[C@H](n2c(CC(=O)Nc3cccnc3CO)nc3cnc4ccc(C#N)cc4c32)CCO1 [Compound 283] = band 2
• C[C@@H]1C[C@H](n2c(CC(=O)Nc3cncn(C)c3=O)nc3cnc4ccc(C#N)cc4c32)CCO1 [Compound 223] = band 2
• C[C@@H]1C[C@H](n2c(CC(=O)Nc3cnoc3)nc3cnc4ccc(Cl)cc4c32)CCO1 [Compound 313] = band 1
• C[C@@H]1C[C@H](n2c(CC(=O)Nc3cccnc3)nc3cnc4ccc(Cl)cc4c32)CCO1 [Compound 325] = band 1
• C[C@@H]1C[C@H](n2c(CC(=O)NCCO)nc3cnc4ccc(Cl)cc4c32)CCO1 [Compound 163] = band 2
• C[C@@H]1C[C@H](n2c(CC(=O)NC3CCOCC3)nc3cnc4ccc(C#N)cc4c32)CCO1 [Compound 4] = band 2
• COc1ncc(NC(=O)Cc2nc3cnc4ccc(C#N)cc4c3n2[C@@H]2CCO[C@H](C)C2)c(C)n1 [Compound 243] = band 2
• C[C@@H]1C[C@H](n2c(CC(=O)Nc3ncccn3)nc3cnc4ccc(C#N)cc4c32)CCO1 [Compound 178] = band 1
• C[C@@H]1C[C@H](n2c(CC(=O)Nc3ccn(C4COC4)n3)nc3cnc4ccc(C#N)cc4c32)CCO1 [Compound 346] = band 2
• C[C@@H]1C[C@H](n2c(CC(=O)Nc3nccc(C(F)(F)F)n3)nc3cnc4ccc(C#N)cc4c32)CCO1 [Compound 361] = band 1
• C[C@@H]1C[C@H](n2c(CC(=O)N[C@@H](C)C3CC3)nc3cnc4ccc(C#N)cc4c32)CCO1 [Compound 8] = band 3
• COc1c(NC(=O)Cc2nc3cnc4ccc(C#N)cc4c3n2[C@@H]2CCO[C@H](C)C2)cnn1C [Compound 224] = band 3
• Cc1ccc2ncc3nc(CC(=O)NC4CC4)n([C@@H]4CCO[C@H](C)C4)c3c2c1 [Compound 191] = band 2
• C[C@@H]1C[C@H](n2c(CC(=O)N3CCCC3)nc3cnc4ccc(C#N)cc4c32)CCO1 [Compound 85] = band 3
• C[C@@H]1C[C@H](n2c(CC(=O)NC3CC34CC4)nc3cnc4ccc(C#N)cc4c32)CCO1 (some centres unmarked) [Compound 249] = band 2
• CCOc1ncccc1NC(=O)Cc1nc2cnc3ccc(C#N)cc3c2n1[C@@H]1CCO[C@H](C)C1 [Compound 275] = band 1
• C[C@@H]1C[C@H](n2c([C@H]3CCN(S(C)(=O)=O)C3)nc3cnc4ccc(C#N)cc4c32)CCO1 [Compound 39] = band 3
• COc1ccncc1NC(=O)Cc1nc2cnc3ccc(C#N)cc3c2n1[C@@H]1CCO[C@H](C)C1 [Compound 250] = band 1
• C[C@@H]1C[C@H](n2c(CC(=O)Nc3ccnn3C3COC3)nc3cnc4ccc(C#N)cc4c32)CCO1 [Compound 345] = band 2
• C[C@@H]1C[C@H](n2c([C@H]3CCCN(C(=O)C4CC4)C3)nc3cnc4ccc(C#N)cc4c32)CCO1 [Compound 29] = band 3
• C[C@@H]1C[C@H](n2c(CC(=O)Nc3cc(C(F)(F)F)on3)nc3cnc4ccc(C#N)cc4c32)CCO1 [Compound 339] = band 2
• COc1nc(C)nc(C)c1NC(=O)Cc1nc2cnc3ccc(C#N)cc3c2n1[C@@H]1CCO[C@H](C)C1 [Compound 203] = band 3
• C[C@@H]1C[C@H](n2c(CC(=O)N[C@@H]3C[C@@H]3F)nc3cnc4ccc(C#N)cc4c32)CCO1 [Compound 290] = band 2
• Cc1cncc(NC(=O)Cc2nc3cnc4ccc(C#N)cc4c3n2[C@@H]2CCO[C@H](C)C2)c1 [Compound 269] = band 1
• Cc1nc2n(n1)CC(NC(=O)Cc1nc3cnc4ccc(C#N)cc4c3n1[C@@H]1CCO[C@H](C)C1)CC2 (some centres unmarked) [Compound 244] = band 3
• Cc1cnc(NC(=O)Cc2nc3cnc4ccc(C#N)cc4c3n2[C@@H]2CCO[C@H](C)C2)cn1 [Compound 315] = band 1
• C[C@@H]1C[C@H](n2c(CC(=O)Nc3cnn(C)c3)nc3cnc4ccc(Cl)cc4c32)CCO1 [Compound 193] = band 1
• Cc1nnc(CNC(=O)Cc2nc3cnc4ccc(C#N)cc4c3n2[C@@H]2CCO[C@H](C)C2)o1 [Compound 257] = band 3

----------
Catalogue of molecules with associated IC50
target: wild type LRRK2 overexpressed in recombinant HEK-293T cells (Homo sapiens); experiment: pS935 LRRK2 Cell Assay (HTRF, phospho-LRRK2 Ser935); details: LRRK2 Inhibition, Table 8, 2 hours compound incubation
parameter measured: IC50

- C[C@@H]1C[C@H](n2c(CC(=O)NC3(C)CCOC3)nc3cnc4ccc(Cl)cc4c32)CCO1 (stereo partly shown): 30.7 nM
- Cc1ccnc(C)c1NC(=O)Cc1nc2cnc3ccc(C#N)cc3c2n1[C@@H]1CCO[C@H](C)C1: 15.1 nM
- C[C@@H]1C[C@H](n2c(CC(=O)Nc3ccno3)nc3cnc4ccc(C#N)cc4c32)CCO1: 10.6 nM
- C[C@@H]1C[C@H](n2c(CC(=O)Nc3ccc(F)nc3)nc3cnc4ccc(C#N)cc4c32)CCO1: 10.5 nM
- CC(C)NC(=O)Cc1nc2cnc3ccc(C#N)cc3c2n1[C@@H]1CCO[C@H](C)C1: 43.7 nM
- C[C@@H]1C[C@H](n2c(CC(=O)NC3(c4ccccn4)CC3)nc3cnc4ccc(C#N)cc4c32)CCO1: 2.05 nM
- C[C@@H]1C[C@H](n2c(CC3CN(C(=O)c4ccccn4)C3)nc3cnc4ccc(C#N)cc4c32)CCO1: 158 nM

----------
The compounds below have reported pIC50 for UniProt:Q5S007.
pIC50: −log10 of the molar value.
parameter measured: pIC50

- C[C@@H]1C[C@H](n2c(CC(=O)NCC3CCC3)nc3cnc4ccc(C#N)cc4c32)CCO1: 9.23
- CC(C)n1cc(NC(=O)Cc2nc3cnc4ccc(C#N)cc4c3n2[C@@H]2CCO[C@H](C)C2)cn1: 9.14
- C[C@@H]1C[C@H](n2c(CC(N)=O)nc3cnc4ccc(C#N)cc4c32)CCO1: 8.94
- C[C@@H]1C[C@H](n2c(CC(=O)Nc3ccno3)nc3cnc4ccc(Cl)cc4c32)CCO1: 9.22
- CCn1cc(NC(=O)Cc2nc3cnc4ccc(C#N)cc4c3n2[C@@H]2CCO[C@H](C)C2)cn1: 9.15
- CC(=O)N1CCC(c2nc3cnc4ccc(C#N)cc4c3n2[C@@H]2CCO[C@H](C)C2)CC1: 8.90
- C[C@@H]1C[C@H](n2c(C3CCN(S(=O)(=O)c4cnn(C)c4)CC3)nc3cnc4ccc(C#N)cc4c32)CCO1: 8.74
- C[C@@H]1C[C@H](n2c(C3CC(=O)N(c4cnn(CCO)c4)C3)nc3cnc4ccc(C#N)cc4c32)CCO1 (stereo partly drawn): 8.85
- CNC(=O)Cc1nc2cnc3ccc(C#N)cc3c2n1[C@@H]1CCO[C@H](C)C1: 9.08
- C[C@@H]1C[C@H](n2c([C@H]3CN(CC4CC4)C(=O)O3)nc3cnc4ccc(C#N)cc4c32)CCO1: 8.94
- COCCn1cc(N2CC(c3nc4cnc5ccc(C#N)cc5c4n3[C@@H]3CCO[C@H](C)C3)CC2=O)cn1 (stereo partly drawn): 8.84
- C[C@@H]1C[C@H](n2c(CC(=O)NC3CCOc4cccnc43)nc3cnc4ccc(Cl)cc4c32)CCO1 (stereo partly drawn): 9.26
- CC(=O)N1CC[C@H](c2nc3cnc4ccc(C#N)cc4c3n2[C@@H]2CCO[C@H](C)C2)C1: 7.91
- C[C@@H]1C[C@H](n2c(CC(=O)Nc3ccno3)nc3cnc4ccc(C#N)cc4c32)CCO1: 9.10
- C[C@@H]1C[C@H](n2c(CC(=O)Nc3cnoc3)nc3cnc4ccc(C#N)cc4c32)CCO1: 9.36
- CO[C@H]1C[C@@H](NC(=O)Cc2nc3cnc4ccc(C#N)cc4c3n2[C@@H]2CCO[C@H](C)C2)C1: 9.15
- C[C@@H]1C[C@H](n2c(CC(=O)NCc3ccn(C)n3)nc3cnc4ccc(C#N)cc4c32)CCO1: 9.30
- C[C@@H]1C[C@H](n2c(C3CC(=O)N(C4CCOCC4)C3)nc3cnc4ccc(C#N)cc4c32)CCO1 (mixture of isomers): 8.43
- C[C@@H]1C[C@H](n2c(C3CC(=O)N(Cc4cnn(C)c4)C3)nc3cnc4ccc(C#N)cc4c32)CCO1 (mixture of isomers): 8.80
- CC(=O)N1CC(c2nc3cnc4ccc(C#N)cc4c3n2[C@@H]2CCO[C@H](C)C2)C1: 7.91
- C[C@@H]1C[C@H](n2c([C@@H]3CN(CC4CC4)C(=O)O3)nc3cnc4ccc(C#N)cc4c32)CCO1: 7.27
